Act% values for the molecules below.
Target: CepR (Burkholderia cenocepacia, UniProt B4EMD0)
Sequence (B4EMD0 1-239): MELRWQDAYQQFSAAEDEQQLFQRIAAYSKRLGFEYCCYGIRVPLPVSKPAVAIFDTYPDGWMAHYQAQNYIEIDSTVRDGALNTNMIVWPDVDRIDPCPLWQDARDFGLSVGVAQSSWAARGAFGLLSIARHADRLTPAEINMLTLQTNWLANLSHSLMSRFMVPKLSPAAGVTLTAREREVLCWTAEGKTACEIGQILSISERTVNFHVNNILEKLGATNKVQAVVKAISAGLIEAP
Assay: CepR agonism in E. coli β-galactosidase reporter (Ec-reporter) JLD271 [pJN105-cepR + pSC11-cepI]
Assay type: cell-based, B. cenocepacia
Details: Table S2, Ec-reporter; screening conc. 100 μM
Test Readout: Act% (%)

INSERT INTO results (molecule, output_unit, experimental_value) VALUES
  ('O=C(CCc1ccc(Br)cc1)N[C@H]1CCOC1=O [Compound B7]', '%', 97),
  ('O=C(CC1CCCCC1)N[C@H]1CCOC1=O [Compound S7]', '%', 7.6),
  ('O=C(CCc1ccccc1)N[C@H]1CCOC1=O [Compound B9]', '%', 88),
  ('O=C(Cc1ccc(Cl)c(Cl)c1)N[C@H]1CCOC1=O [Compound E11]', '%', 1.9);
